Molecular target: … (Plasmodium falciparum)
Test: BLI, target on sensor
observable: Kd
Please give the number followed by its unit.

Input line: What does the record list as Kd for AB-007044 (antibody, V domains shown) VH: QMQLVESGGGVVQPGRSLRLSCTASGFTFSTYAMHWVRQSPGQGLQWVAVISYHSTNKYYEESVRGRFTISRDNSKNTLYLQMNSLRAEDTAVYYCARDGYSSSFFDFWGQGTLVTVSS VL: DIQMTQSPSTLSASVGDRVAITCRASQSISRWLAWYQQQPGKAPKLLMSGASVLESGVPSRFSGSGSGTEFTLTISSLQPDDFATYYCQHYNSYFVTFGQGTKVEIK ?
Output line: 3.47 nM

Input line: What does the record list as Kd for AB-007037 (antibody, V domains shown) VH: QMQLVESGGGVVQPGRSLRLSCTASGFTFSTYAMHWVRQSPGQGLQWVAVISYHSTNKYYEDSVKGRFTISRDNSKNTLYLQMNSLRAEDTAVYYCARDGYSSSFFDFWGQGTLVTVSS VL: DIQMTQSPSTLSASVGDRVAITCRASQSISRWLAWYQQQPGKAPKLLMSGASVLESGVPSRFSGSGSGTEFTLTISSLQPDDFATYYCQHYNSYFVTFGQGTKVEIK ?
Output line: 2.47 nM

Input line: What does the record list as Kd for AB-007057 (antibody, V domains shown) VH: QMQLVESGGGVVQPGRSLRLSCTASGFTFSTYAMHWVRQSPGQGLQWVAVISYHSTNKYYEDSVRGRFTISRDNSKNTLYLQMNSLRAEDTAVYYCARDGYHSSFFDFWGQGTLVTVSS VL: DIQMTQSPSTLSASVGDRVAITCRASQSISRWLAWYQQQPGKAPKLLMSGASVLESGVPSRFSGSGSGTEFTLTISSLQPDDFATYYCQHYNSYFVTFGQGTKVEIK ?
Output line: 10.5 nM
